measured-on: RARb:RXRa (Homo sapiens, UniProt P10826;P19793 full;full)
Sequence (P10826 whole entry, chain 1 of 2): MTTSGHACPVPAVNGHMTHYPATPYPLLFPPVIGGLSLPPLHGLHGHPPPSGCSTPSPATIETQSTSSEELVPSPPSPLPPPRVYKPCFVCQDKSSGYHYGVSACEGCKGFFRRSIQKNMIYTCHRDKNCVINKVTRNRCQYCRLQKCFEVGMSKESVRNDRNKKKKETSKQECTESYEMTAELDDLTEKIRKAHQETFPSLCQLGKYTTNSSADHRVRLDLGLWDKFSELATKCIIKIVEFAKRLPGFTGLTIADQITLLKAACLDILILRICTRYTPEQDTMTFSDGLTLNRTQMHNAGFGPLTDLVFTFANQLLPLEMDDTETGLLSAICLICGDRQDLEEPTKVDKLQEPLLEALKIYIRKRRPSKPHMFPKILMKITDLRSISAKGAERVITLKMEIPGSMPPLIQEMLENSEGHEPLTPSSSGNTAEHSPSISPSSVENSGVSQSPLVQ
Sequence (P19793 whole entry, chain 2 of 2): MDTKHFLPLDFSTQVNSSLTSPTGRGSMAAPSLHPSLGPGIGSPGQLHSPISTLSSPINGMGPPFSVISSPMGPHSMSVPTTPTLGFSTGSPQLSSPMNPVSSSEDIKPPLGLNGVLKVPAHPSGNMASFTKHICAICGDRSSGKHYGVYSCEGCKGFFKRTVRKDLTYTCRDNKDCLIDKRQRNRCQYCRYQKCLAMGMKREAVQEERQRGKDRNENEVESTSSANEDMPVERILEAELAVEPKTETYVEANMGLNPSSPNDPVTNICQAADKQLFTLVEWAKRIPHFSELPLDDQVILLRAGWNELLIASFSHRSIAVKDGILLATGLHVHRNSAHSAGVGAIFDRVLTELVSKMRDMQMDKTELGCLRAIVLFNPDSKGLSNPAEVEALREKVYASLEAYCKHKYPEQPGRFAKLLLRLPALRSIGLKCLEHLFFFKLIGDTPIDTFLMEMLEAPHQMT
assay-text: no ligand; PBM; 270 nM : 90 nM RXRa; PBS pH 7.4, 2% milk, 0.02% Triton X-100, 1 mM DTT, BSA, 0.4 mg/ml salmon testes DNA
stated-conditions: tags: His kept;His cleaved; copies: 1;1; label: surface-attached array probe
measure-name: binding signal

Documented binding signal of NRC3_wobSeed65_DR2_A5T_o1 (dsDNA) DNA 1: GCATTTGTAGGTTATCGGGTCATTCAGTTTGCGCATGCGATTGACAGCGTAGAATGAAGG DNA 2: CCTTCATTCTACGCTGTCAATCGCATGCGCAAACTGAATGACCCGATAACCTACAAATGC : 3 PBM z-score against 500 random probes
